Known self-aminoacylation of a selection of sequences
- Tested on: biotinyl-Phe-oxazolone
- assay_method_text: self-aminoacylation, catalytic enhancement (BFO) (fold over background); higher = more active; k-Seq, kA / k0A0; sequences stand for … in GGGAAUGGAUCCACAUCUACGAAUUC…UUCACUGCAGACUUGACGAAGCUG
Variants at the floor of the assay were thinned out.
observed_property: self-aminoacylation

                             residue_string    observed_property  reading
0  AAGUUUGCUAAGAGUCGAAAG [Fam3.1 aminoacylation ribozyme variant]  self-aminoacylation      1.3
1  AUUCACCUAGUUCAUCGGGCG [Fam2.2 aminoacylation ribozyme variant]  self-aminoacylation      5.7
2  AUCCACCUAGGUCAUCGGAUG [Fam2.2 aminoacylation ribozyme variant]  self-aminoacylation    0.726
3  CAACACUACAAGCAAUCGGUC [Fam1B.1 aminoacylation ribozyme variant]  self-aminoacylation    0.958
4  AUGCACAUAGGUCAUCGGGUG [Fam2.2 aminoacylation ribozyme variant]  self-aminoacylation     73.3
5  AUUAACCUGGUCAUCGAGGGA [Fam2.1 aminoacylation ribozyme variant]  self-aminoacylation    0.771
6  AUUUCCCUGGUCAUCGAGUGU [Fam2.1 aminoacylation ribozyme variant]  self-aminoacylation     26.8
7  AUUCACCUAGGUCUUCAGGUG [Fam2.2 aminoacylation ribozyme variant]  self-aminoacylation     6.96
8  AAGUUUGCUCAUAGUUGCAAG [Fam3.1 aminoacylation ribozyme variant]  self-aminoacylation     1.04
9  CUACUUCAAACAGUCGGUAUG [Fam1A.1 aminoacylation ribozyme variant]  self-aminoacylation    0.447

* * *

- Test system: biotinyl-Phe-oxazolone
- assay_method_text: self-aminoacylation, catalytic enhancement (BFO) (fold over background); higher = more active; k-Seq, kA / k0A0; sequences stand for … in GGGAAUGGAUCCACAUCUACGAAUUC…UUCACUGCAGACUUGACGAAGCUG
Fewer inactive variants are shown than the library holds.
observed_property: self-aminoacylation

>>> print(df.to_string())
                              residue_string  reading
 0  AUUACCCUGGUCAUCUAGUAA [Fam2.1 aminoacylation ribozyme variant]     1.32
 1  CCACACUUAAAGAAAUCGGUC [Fam1B.1 aminoacylation ribozyme variant]    0.562
 2  AUUCACCUAGGUCAGCGGUUG [Fam2.2 aminoacylation ribozyme variant]     6.39
 3  AAGCUUGCUUAUAGUCGCAAG [Fam3.1 aminoacylation ribozyme variant]     3.55
 4  AUUAUCCUGGUCAUCUAGUGA [Fam2.1 aminoacylation ribozyme variant]     77.8
 5  AUUCACUUAGGUCAUCGGCUG [Fam2.2 aminoacylation ribozyme variant]     4.69
 6  AUUACCCUGGUCAUCCAGUGA [Fam2.1 aminoacylation ribozyme variant]     28.1
 7  CUUACCCUGGUCAUUGAGUGA [Fam2.1 aminoacylation ribozyme variant]     22.8
 8  AUUACCCUGGUUAUCGUGUGA [Fam2.1 aminoacylation ribozyme variant]       15
 9  AACUUUGCUACUAGUCGCAAG [Fam3.1 aminoacylation ribozyme variant]      3.3
10  CUACCUCCAACAAUCGGUCUG [Fam1A.1 aminoacylation ribozyme variant]     4.71
11  UUUGACCUAGGUCAUCGGGUG [Fam2.2 aminoacylation ribozyme variant]     26.6

Origin of measurements: the supplement of paper PMC9233669
